This document collects pIC50 values reported for Cholinesterase (Equus caballus, UniProt P81908).
// scale note: pIC50 = -log10(conc_M); give the bare number

// query // lookup pIC50 | system=Cholinesterase (Equus caballus, UniProt P81908) | key= CC(C(=O)NCCCNc1c2c(nc3ccccc13)CCCC2)c1ccc(-c2ccc(OCCCCCCO[N+](=O)[O-])cc2)c(F)c1 (stereo not given)
// result 8.09

// query // lookup pIC50 | system=Cholinesterase (Equus caballus, UniProt P81908) | key= CC(C(=O)NCCNc1c2c(nc3ccccc13)CCCC2)c1ccc(-c2ccc(OCCCO[N+](=O)[O-])cc2)c(F)c1 (stereo not given)
// result 8.00

// query // lookup pIC50 | system=Cholinesterase (Equus caballus, UniProt P81908) | key= CC(C(=O)NCCNc1c2c(nc3ccccc13)CCCC2)c1ccc(-c2ccc(OCCCCO[N+](=O)[O-])cc2)c(F)c1 (stereo not given)
// result 8.00

// query // lookup pIC50 | system=Cholinesterase (Equus caballus, UniProt P81908) | key= CC(C(=O)NCCCCNc1c2c(nc3ccccc13)CCCC2)c1ccc(-c2ccc(OCCO[N+](=O)[O-])cc2)c(F)c1 (stereo not given)
// result 7.86

// query // lookup pIC50 | system=Cholinesterase (Equus caballus, UniProt P81908) | key= CC(C(=O)NCCCNc1c2c(nc3ccccc13)CCCC2)c1ccc(-c2ccc(OCCCO[N+](=O)[O-])cc2)c(F)c1 (stereo not given)
// result 8.07

New cases:
// query // lookup pIC50 | system=Cholinesterase (Equus caballus, UniProt P81908) | key= CC(C(=O)NCCNc1c2c(nc3ccccc13)CCCC2)c1ccc(-c2ccccc2)c(F)c1 (stereo not given)
// result 7.23

// query // lookup pIC50 | system=Cholinesterase (Equus caballus, UniProt P81908) | key= CC(C(=O)NCCCCNc1c2c(nc3ccccc13)CCCC2)c1ccc(-c2ccc(OCCCO[N+](=O)[O-])cc2)c(F)c1 (stereo not given)
// result 7.97

// query // lookup pIC50 | system=Cholinesterase (Equus caballus, UniProt P81908) | key= CC(C(=O)NCCCCNc1c2c(nc3ccccc13)CCCC2)c1ccc(-c2ccccc2)c(F)c1 (stereo not given)
// result 7.96

// query // lookup pIC50 | system=Cholinesterase (Equus caballus, UniProt P81908) | key= CC(C(=O)NCCNc1c2c(nc3ccccc13)CCCC2)c1ccc(-c2ccc(OCCCCCCO[N+](=O)[O-])cc2)c(F)c1 (stereo not given)
// result 8.12

// query // lookup pIC50 | system=Cholinesterase (Equus caballus, UniProt P81908) | key= CC(C(=O)NCCCNc1c2c(nc3ccccc13)CCCC2)c1ccc(-c2ccc(OCCCCO[N+](=O)[O-])cc2)c(F)c1 (stereo not given)
// result 8.10

----------
This document collects IC50 values reported for Acetylcholinesterase (Electrophorus electricus, UniProt O42275).
Write down the numeric answer in nM and omit the unit.

Check out these entries, answers already filled in.
// query // lookup IC50 | system=Acetylcholinesterase (Electrophorus electricus, UniProt O42275) | key= CC(C(=O)NCCNc1c2c(nc3ccccc13)CCCC2)c1ccc(-c2ccc(OCCCCCCO[N+](=O)[O-])cc2)c(F)c1 (stereo not given)
// result 4310

// query // lookup IC50 | system=Acetylcholinesterase (Electrophorus electricus, UniProt O42275) | key= CC(C(=O)NCCCNc1c2c(nc3ccccc13)CCCC2)c1ccc(-c2ccc(OCCCO[N+](=O)[O-])cc2)c(F)c1 (stereo not given)
// result 189

// query // lookup IC50 | system=Acetylcholinesterase (Electrophorus electricus, UniProt O42275) | key= CC(C(=O)NCCNc1c2c(nc3ccccc13)CCCC2)c1ccc(-c2ccc(OCCCO[N+](=O)[O-])cc2)c(F)c1 (stereo not given)
// result 341

// query // lookup IC50 | system=Acetylcholinesterase (Electrophorus electricus, UniProt O42275) | key= CC(C(=O)NCCCNc1c2c(nc3ccccc13)CCCC2)c1ccc(-c2ccccc2)c(F)c1 (stereo not given)
// result 345

// query // lookup IC50 | system=Acetylcholinesterase (Electrophorus electricus, UniProt O42275) | key= CC(C(=O)NCCCCNc1c2c(nc3ccccc13)CCCC2)c1ccc(-c2ccc(OCCO[N+](=O)[O-])cc2)c(F)c1 (stereo not given)
// result 227

New cases:
// query // lookup IC50 | system=Acetylcholinesterase (Electrophorus electricus, UniProt O42275) | key= CC(C(=O)NCCCNc1c2c(nc3ccccc13)CCCC2)c1ccc(-c2ccc(OCCCCO[N+](=O)[O-])cc2)c(F)c1 (stereo not given)
// result 357

----------
pIC50 overview
target: Cholinesterase (Equus caballus)
Sequence (P81908 whole entry): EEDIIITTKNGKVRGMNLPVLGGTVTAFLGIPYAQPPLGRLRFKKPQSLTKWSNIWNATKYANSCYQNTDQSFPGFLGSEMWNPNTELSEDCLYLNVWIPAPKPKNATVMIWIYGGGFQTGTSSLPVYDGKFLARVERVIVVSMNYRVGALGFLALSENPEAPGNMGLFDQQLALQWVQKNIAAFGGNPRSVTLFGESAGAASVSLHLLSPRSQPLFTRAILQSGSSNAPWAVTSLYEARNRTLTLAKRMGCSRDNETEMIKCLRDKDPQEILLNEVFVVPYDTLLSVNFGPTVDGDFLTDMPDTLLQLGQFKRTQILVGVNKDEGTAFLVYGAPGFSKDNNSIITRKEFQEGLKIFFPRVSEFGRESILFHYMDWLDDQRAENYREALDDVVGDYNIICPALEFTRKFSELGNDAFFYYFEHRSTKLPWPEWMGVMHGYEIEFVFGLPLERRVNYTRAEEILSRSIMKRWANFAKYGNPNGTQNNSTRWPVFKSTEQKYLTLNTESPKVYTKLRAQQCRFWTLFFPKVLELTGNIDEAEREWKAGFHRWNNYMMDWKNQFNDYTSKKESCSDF
// scale note: pIC50 = -log10(conc_M); give the bare number

// query Requested field: pIC50. Item: CC(C(=O)NCCCNc1c2c(nc3ccccc13)CCCC2)c1ccc(-c2ccccc2)c(F)c1 (stereo not given)
// result 7.86

// query Requested field: pIC50. Item: CC(C(=O)NCCCNc1c2c(nc3ccccc13)CCCC2)c1ccc(-c2ccc(OCCO[N+](=O)[O-])cc2)c(F)c1 (stereo not given)
// result 8.09

// query Requested field: pIC50. Item: CC(C(=O)NCCCCNc1c2c(nc3ccccc13)CCCC2)c1ccc(-c2ccc(OCCCCCCO[N+](=O)[O-])cc2)c(F)c1 (stereo not given)
// result 8.41

// query Requested field: pIC50. Item: CC(C(=O)NCCCCNc1c2c(nc3ccccc13)CCCC2)c1ccc(-c2ccc(OCCCCO[N+](=O)[O-])cc2)c(F)c1 (stereo not given)
// result 8.11

Now let's try a different one.
// query Requested field: pIC50. Item: CC(C(=O)NCCNc1c2c(nc3ccccc13)CCCC2)c1ccc(-c2ccc(OCCO[N+](=O)[O-])cc2)c(F)c1 (stereo not given)
// result 8.00

----------
target: Acetylcholinesterase (Electrophorus electricus, UniProt O42275)
Sequence (O42275 whole entry): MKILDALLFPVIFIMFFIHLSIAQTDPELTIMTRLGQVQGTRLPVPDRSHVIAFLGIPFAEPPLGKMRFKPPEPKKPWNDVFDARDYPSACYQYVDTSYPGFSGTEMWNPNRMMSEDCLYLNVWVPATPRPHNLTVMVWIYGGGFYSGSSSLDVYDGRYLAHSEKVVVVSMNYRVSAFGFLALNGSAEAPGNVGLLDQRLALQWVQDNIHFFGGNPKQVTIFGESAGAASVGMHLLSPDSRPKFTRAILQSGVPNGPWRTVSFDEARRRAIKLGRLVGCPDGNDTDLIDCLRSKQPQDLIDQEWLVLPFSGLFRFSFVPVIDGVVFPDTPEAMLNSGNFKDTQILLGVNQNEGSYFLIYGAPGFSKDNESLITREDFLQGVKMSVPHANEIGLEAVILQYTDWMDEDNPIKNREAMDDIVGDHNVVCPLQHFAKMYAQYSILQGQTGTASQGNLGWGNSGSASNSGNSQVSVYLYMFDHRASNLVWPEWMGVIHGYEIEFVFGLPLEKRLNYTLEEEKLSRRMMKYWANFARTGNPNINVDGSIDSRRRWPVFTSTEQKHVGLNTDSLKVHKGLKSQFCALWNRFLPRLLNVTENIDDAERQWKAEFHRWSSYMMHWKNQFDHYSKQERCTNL
Reported Property: IC50
Remember to put the unit after the number in your answer.

// query // lookup IC50 | system=Acetylcholinesterase (Electrophorus electricus, UniProt O42275) | key= CC(C(=O)NCCCCNc1c2c(nc3ccccc13)CCCC2)c1ccc(-c2ccc(OCCCCCCO[N+](=O)[O-])cc2)c(F)c1 (centres undefined)
// result 1460 nM

New cases:
// query // lookup IC50 | system=Acetylcholinesterase (Electrophorus electricus, UniProt O42275) | key= CC(C(=O)NCCNc1c2c(nc3ccccc13)CCCC2)c1ccc(-c2ccccc2)c(F)c1 (centres undefined)
// result 715 nM

// query // lookup IC50 | system=Acetylcholinesterase (Electrophorus electricus, UniProt O42275) | key= CC(C(=O)NCCCNc1c2c(nc3ccccc13)CCCC2)c1ccc(-c2ccc(OCCCCCCO[N+](=O)[O-])cc2)c(F)c1 (centres undefined)
// result 1010 nM

// query // lookup IC50 | system=Acetylcholinesterase (Electrophorus electricus, UniProt O42275) | key= CC(C(=O)NCCCCNc1c2c(nc3ccccc13)CCCC2)c1ccc(-c2ccc(OCCCCO[N+](=O)[O-])cc2)c(F)c1 (centres undefined)
// result 641 nM

// query // lookup IC50 | system=Acetylcholinesterase (Electrophorus electricus, UniProt O42275) | key= CC(C(=O)NCCNc1c2c(nc3ccccc13)CCCC2)c1ccc(-c2ccc(OCCCCO[N+](=O)[O-])cc2)c(F)c1 (centres undefined)
// result 1350 nM

// query // lookup IC50 | system=Acetylcholinesterase (Electrophorus electricus, UniProt O42275) | key= CC(C(=O)NCCCCNc1c2c(nc3ccccc13)CCCC2)c1ccc(-c2ccc(OCCCO[N+](=O)[O-])cc2)c(F)c1 (centres undefined)
// result 261 nM

// query // lookup IC50 | system=Acetylcholinesterase (Electrophorus electricus, UniProt O42275) | key= CC(C(=O)NCCCNc1c2c(nc3ccccc13)CCCC2)c1ccc(-c2ccc(OCCO[N+](=O)[O-])cc2)c(F)c1 (centres undefined)
// result 112 nM

// query // lookup IC50 | system=Acetylcholinesterase (Electrophorus electricus, UniProt O42275) | key= CC(C(=O)NCCNc1c2c(nc3ccccc13)CCCC2)c1ccc(-c2ccc(OCCO[N+](=O)[O-])cc2)c(F)c1 (centres undefined)
// result 183 nM

// query // lookup IC50 | system=Acetylcholinesterase (Electrophorus electricus, UniProt O42275) | key= CC(C(=O)NCCCCNc1c2c(nc3ccccc13)CCCC2)c1ccc(-c2ccccc2)c(F)c1 (centres undefined)
// result 193 nM
